Origin of values: patent US20230096766A1

- testProtocol: in vitro
- protocolConditions: human, Caco-2, Caco-2 (cm/sec) Papp
Where a SMILES comes first, the peptide text is derived from it. Bridges are numbered along the chain shown (N, C = ends). [ ]: non-standard residue; d: D form. The star is where a group is joined. NMeAla(4-thiazolyl) = CN[C@@H](Cc1cscn1)C(=O)O; NMeF = CN[C@@H](Cc1ccccc1)C(=O)O; NMeL = CN[C@@H](CC(C)C)C(=O)O; Piperidide = C1CCN(*)CC1; Sar = CNCC(=O)O
reportedEndpoint: Papp (×10⁻⁶ cm/s)
Quick reminder: number only, in ×10⁻⁶ cm/s, skip the unit.

q: Name the recorded Papp for CC(C)C[C@@H]1NC(=O)[C@H](CC(C)C)N(C)C(=O)C[C@@H](C(=O)N2CCCCC2)NC(=O)[C@H](CC(C)C)N(C)C(=O)CN(C)C(=O)[C@H]([C@@H](C)O)NC(=O)[C@H](Cc2cscn2)N(C)C(=O)[C@H](Cc2ccccc2)N(C)C(=O)[C@H](Cc2ccccc2)NC(=O)[C@H](Cc2ccccc2)N(C)C(=O)[C@H](CC(C)C)N(C)C1=O [pd228] ([NMeL]L[NMeL][NMeF]F[NMeF][NMeAla(4-thiazolyl)]T[Sar][NMeL]D-Piperidide; lactam N-11) .
a: 0.58
